All values here come from PubChem BioAssay AID1159580.

assay: chemical genetic growth profiling, strain panel (AID 1159580);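 further: tested at 20 µM; growth read once vehicle control cultures reached saturation at 30 °C; 1 = growth at the plate median or of vehicle wells; lower values mean less growth of the strain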; conditions: S. cerevisiae deletion strains, growth OD, locus YCL061C, strain MRC1, stronger effect = lower value
The whole screen tested about 5,500 compounds, of which about 2,000 (36%) were called active. Not shown: some 18% with an inconclusive outcome. This is one part of the list.
MEASUREMENT KIND: normalized growth
Lab note: write the figure by itself, no unit.

The recorded normalized growth for O=C(C1CCCCC1)N1CC(=O)N2CCc3ccccc3C2C1 (stereo unspecified) is 1.01

The recorded normalized growth for C=C1C(=O)OC2CC1C(OC(C)=O)C/C(C)=C/CC/C(C)=C/CC[C@]2(C)O (stereo partly specified) is 0.993

The recorded normalized growth for `CCOC(=O)Nc1ccsc1C(=O)OC` is 0.999

The recorded normalized growth for `C[C@H]1CC[C@@H](C(C)(C)O)CC2=C1CC[C@@H]2C` is 0.995

The recorded normalized growth for `CCOC(=O)[C@H](CCc1ccccc1)N[C@@H](C)C(=O)N1[C@H](C(=O)O)C[C@@H]2CCC[C@@H]21` is 0.982

The recorded normalized growth for CC12NC(=O)NC1(C)NC(=O)N2 (stereo unspecified) is 1

The recorded normalized growth for `O=c1cc[nH]c(=S)[nH]1` is 1.03

The recorded normalized growth for `O=C(CSCc1cccc2ccccc12)NNC(=S)Nc1ccccc1Cl` is 0.971

The recorded normalized growth for CC(C)C(C)/C=C/C(C)C1CCC2C3=CC=C4CC(O)CCC4(C)C3CCC21C (stereo unspecified) is 1.01

The recorded normalized growth for `Clc1cccc(Cl)c1NC1=NCCN1` is 0.989

The recorded normalized growth for `COC(=O)C1=C(C)NC(C)=C(C(=O)OC)C1c1ccc(-c2ccsc2C(=O)OC)o1` is 0.989
